Target: EGFR(L858R/T790M) (Homo sapiens, UniProt P00533, L858R/T790M)
Construct: purchased from Carna (GST-a.a. 669-1210)
Sequence (P00533 669-1210 T790M/L858R): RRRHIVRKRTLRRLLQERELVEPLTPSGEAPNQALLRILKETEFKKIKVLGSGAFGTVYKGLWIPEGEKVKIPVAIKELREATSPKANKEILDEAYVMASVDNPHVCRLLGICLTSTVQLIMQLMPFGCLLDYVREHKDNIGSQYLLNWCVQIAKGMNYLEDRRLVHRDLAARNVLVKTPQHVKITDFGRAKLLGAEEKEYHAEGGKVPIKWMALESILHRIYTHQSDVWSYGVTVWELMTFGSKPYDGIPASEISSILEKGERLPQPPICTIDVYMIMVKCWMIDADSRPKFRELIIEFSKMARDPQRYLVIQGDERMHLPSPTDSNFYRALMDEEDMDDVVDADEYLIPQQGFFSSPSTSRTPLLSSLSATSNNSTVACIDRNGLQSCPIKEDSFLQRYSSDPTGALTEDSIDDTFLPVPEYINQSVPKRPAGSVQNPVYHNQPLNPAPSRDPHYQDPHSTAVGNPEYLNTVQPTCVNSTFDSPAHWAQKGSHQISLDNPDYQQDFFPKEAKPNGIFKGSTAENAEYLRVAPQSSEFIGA
Test: EGFR biochemical assay (HTRF), IC50 determinations
Details: EGFR (L858R/T790M) with no pre-incubation; read-out: IC50 (μM) Column A
Method: All EGFR biochemical assays were carried out by HTRF method. […] The substrate peptide Biotin-TK-peptide was purchased from Cis-Bio. […] All reactions were carried out at room temperature in white ProxiPlate™ 384-well Plus plates (PerkinElmer) and were quenched with 5 μL of 0.2 M EDTA at 60 min. Five L of the detection reagents (2.5 ng PT66K and 0.05 μg SAXL per well) were added, the plates were incubated at room temperature for 1 h and then read in EnVision reader. […]
Please assign F whenever IC50 is at or above 0.01 µM, and T whenever it is below.

Q. Please check: IC50 for "Cc1cc(C(=O)Nc2nc3cccc(C)c3n2[C@@H]2CCCN(C(=O)/C=C/CN(C)C)C2)ccn1" , strictly under 0.01 µM or not?
A. F

---

target: human EGFR L858R (NIH/3T3 cells) (Homo sapiens, UniProt P00533, L858R); assay: EGFR target modulation in engineered NIH/3T3 cell lines (phospho-EGFR Y1068 AlphaLISA), EGFR L858R; assay type: cell-based; conditions: engineered NIH/3T3 cells, read-out: NIH3T3 IC50 (μM) EGFR (L858R)
We begin with a simple list: items and their reported IC50.
Just the number please, in µM, no unit attached.

Reference set, count: 3
compound	IC50 (µM)
COc1ccc(C(=O)Nc2nc3cccc(C)c3n2C2CCCCN(C(=O)/C=C/CN(C)C)C2)cn1 (stereo not shown) [Example 17-45]	0.002
CC1=C(C(=O)N2CCCC[C@@H](n3c(NC(=O)c4ccnnc4)nc4cccc(C)c43)C2)S(=O)(=O)CCO1 [Example 17-88]	0.158
Cc1cccc2nc(NC(=O)c3ccc(Cl)nc3)n([C@@H]3CCCCN(C(=O)/C=C/CN(C)C)C3)c12 [Example 17-77]	0.001

From here, focus on the item given below.
Q. Fill in: IC50 of Cc1cc(C(=O)Nc2nc3cccc(C)c3n2[C@@H]2CCCCN(C(=O)/C=C/CN(C)C)C2)cc(Cl)n1 [Example 17-74] is ___
A. 0.004

---

target: H1975 (EGFR L858/T790M) (Homo sapiens, UniProt P00533, L858R/T790M); test: EGFR target modulation in H1975 cell line (phospho-EGFR Y1173 ELISA)
Sequence (P00533 25-1210 T790M/L858R): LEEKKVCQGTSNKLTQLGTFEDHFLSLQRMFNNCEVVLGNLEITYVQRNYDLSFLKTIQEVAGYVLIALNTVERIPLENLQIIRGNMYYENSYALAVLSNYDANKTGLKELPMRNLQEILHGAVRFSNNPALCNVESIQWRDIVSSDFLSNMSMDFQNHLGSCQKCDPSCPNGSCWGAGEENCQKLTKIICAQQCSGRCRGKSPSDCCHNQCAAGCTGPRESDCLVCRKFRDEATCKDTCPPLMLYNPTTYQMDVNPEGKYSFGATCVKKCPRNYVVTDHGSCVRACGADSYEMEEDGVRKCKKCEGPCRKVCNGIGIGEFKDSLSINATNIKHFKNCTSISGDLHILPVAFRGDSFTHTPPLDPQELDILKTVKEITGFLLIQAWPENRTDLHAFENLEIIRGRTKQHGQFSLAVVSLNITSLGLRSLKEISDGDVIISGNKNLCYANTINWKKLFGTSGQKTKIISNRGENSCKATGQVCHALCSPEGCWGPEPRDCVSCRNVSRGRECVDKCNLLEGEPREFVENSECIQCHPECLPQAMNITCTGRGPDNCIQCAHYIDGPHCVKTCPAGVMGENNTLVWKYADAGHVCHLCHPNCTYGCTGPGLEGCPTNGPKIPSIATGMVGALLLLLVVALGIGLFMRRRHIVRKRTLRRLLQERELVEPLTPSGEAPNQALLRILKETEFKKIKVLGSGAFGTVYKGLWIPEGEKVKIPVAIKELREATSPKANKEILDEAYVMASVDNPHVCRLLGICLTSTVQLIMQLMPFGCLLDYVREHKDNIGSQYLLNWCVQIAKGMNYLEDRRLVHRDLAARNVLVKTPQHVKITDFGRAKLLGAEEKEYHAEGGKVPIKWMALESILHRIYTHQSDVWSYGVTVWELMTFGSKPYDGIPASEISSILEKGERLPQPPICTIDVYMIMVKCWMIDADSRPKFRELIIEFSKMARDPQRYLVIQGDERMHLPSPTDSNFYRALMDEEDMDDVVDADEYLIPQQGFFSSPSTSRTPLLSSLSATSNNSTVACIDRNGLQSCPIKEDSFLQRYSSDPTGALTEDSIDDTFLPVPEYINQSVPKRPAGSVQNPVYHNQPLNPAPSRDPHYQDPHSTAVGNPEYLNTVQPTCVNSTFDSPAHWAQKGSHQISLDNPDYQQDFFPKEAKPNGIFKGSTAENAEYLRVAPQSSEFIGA
reported_property: pIC50
pIC50 (log units): -log10 of the concentration in mol/L.

compound	pIC50
C=CC(=O)N1CCC[C@@H](n2c(NC(=O)c3cccc(C(F)(F)F)c3)nc3cc(C)ccc32)C1 [Example 17-105]	7.57
C=CC(=O)N1CCCC[C@@H](n2c(NC(=O)c3ccnc(C)c3)nc3cc(CN4CC(F)C4)cc(C)c32)C1 [Example 17-152]	9.00
Cc1cc(C(=O)Nc2nc3cccc(Cl)c3n2[C@@H]2CCCCN(C(=O)/C=C/CNC3CC3)C2)ccn1 [Example 17-190]	8.70

Could you now look at the following compound, please?
Q. Query (compound): CN(C)C/C=C/C(=O)N1CCCCC(n2c(NC(=O)c3ccnc(P(C)(C)=O)c3)nc3cccc(Cl)c32)C1 (single isomer, unassigned) [Example 21-10B] ; field requested: pIC50
A. 6.38

---

target: human EGFR WT (NIH/3T3 cells, EGF-induced) (Homo sapiens, UniProt P00533); test: EGFR target modulation in engineered NIH/3T3 cell lines (phospho-EGFR Y1068 AlphaLISA), EGFR WT; type: cell-based; settings: engineered NIH/3T3 cells, read-out: NIH3T3 IC50 (μM) EGFR (WT)
Sequence (P00533 25-1210): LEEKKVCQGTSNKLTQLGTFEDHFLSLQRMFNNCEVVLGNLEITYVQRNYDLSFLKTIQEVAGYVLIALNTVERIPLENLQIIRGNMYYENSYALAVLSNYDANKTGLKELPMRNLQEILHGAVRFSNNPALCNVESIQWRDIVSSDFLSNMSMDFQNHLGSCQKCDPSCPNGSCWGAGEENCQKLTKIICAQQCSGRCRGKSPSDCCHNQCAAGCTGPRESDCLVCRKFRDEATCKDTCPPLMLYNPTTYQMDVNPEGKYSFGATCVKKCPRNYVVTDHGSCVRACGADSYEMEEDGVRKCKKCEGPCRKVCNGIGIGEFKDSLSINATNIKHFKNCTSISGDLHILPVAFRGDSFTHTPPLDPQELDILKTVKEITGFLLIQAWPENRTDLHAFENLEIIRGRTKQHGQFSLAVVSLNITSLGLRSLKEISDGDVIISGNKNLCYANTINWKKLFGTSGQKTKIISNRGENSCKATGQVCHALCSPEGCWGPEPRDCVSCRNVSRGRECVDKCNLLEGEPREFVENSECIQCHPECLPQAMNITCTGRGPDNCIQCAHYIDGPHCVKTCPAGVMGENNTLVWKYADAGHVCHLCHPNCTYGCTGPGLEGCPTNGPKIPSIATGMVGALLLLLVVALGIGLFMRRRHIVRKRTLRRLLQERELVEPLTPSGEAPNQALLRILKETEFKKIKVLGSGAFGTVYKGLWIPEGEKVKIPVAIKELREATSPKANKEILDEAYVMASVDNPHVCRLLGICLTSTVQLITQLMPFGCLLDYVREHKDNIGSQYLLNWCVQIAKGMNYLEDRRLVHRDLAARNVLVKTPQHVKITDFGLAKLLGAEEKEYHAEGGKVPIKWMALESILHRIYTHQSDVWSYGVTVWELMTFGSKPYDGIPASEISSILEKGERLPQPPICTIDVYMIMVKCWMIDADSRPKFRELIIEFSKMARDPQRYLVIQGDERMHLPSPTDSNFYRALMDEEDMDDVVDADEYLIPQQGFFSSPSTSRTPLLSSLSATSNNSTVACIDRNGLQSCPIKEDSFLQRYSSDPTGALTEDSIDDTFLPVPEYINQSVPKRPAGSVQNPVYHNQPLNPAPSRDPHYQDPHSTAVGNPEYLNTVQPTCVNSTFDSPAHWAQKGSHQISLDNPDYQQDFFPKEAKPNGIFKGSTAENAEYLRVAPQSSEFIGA
Recorded log10 IC50 values for a group of molecules are listed next.
In our notation, the value equals log10 of IC50 in µM.

molecule	data_value
Cc1cccc2nc(NC(=O)c3cncc(F)c3)n([C@@H]3CCCCN(C(=O)/C=C/CN(C)C)C3)c12 [Example 17-69]	-1.70
CC(C)Oc1cccc2nc(NC(=O)c3ccnnc3)n([C@@H]3CCCCN(C(=O)/C=C/CN(C)C)C3)c12 [Example 17-85]	-0.22
C=CC(=O)N1CCOCC(n2c(NC(=O)c3cccc(C(F)(F)F)c3)nc3cccc(C)c32)C1 (single isomer, unassigned) [Example 21-7B]	-0.19
C=C(CN1CCOCC1)C(=O)N1CCCC[C@@H](n2c(NC(=O)c3ccnnc3)nc3cccc(C)c32)C1 [Example 17-93]	0.62
Cc1cc(C(=O)Nc2nc3cccc(Cl)c3n2[C@@H]2CCCCN(C(=O)/C=C/CN3CCCC3)C2)ccn1 [Example 1]	-0.82

// next entry
Q. Find the recorded log10 IC50 belonging to Cc1cccc2nc(NC(=O)c3cccc(Cl)c3F)n(C3CCCCN(C(=O)/C=C/CN(C)C)C3)c12 (centres unmarked) [Example 17-31] and report it.
A. -0.12

---

molecular target: human EGFR L858R (NIH/3T3 cells) (Homo sapiens, UniProt P00533, L858R); assay: EGFR target modulation in engineered NIH/3T3 cell lines (phospho-EGFR Y1068 AlphaLISA), EGFR L858R; assay type: cell-based; settings: engineered NIH/3T3 cells, read-out: NIH3T3 IC50 (μM) EGFR (L858R)
reported_property: IC50 (µM)
Please give a number only; it is taken to be in µM.

Reference set, count: 3
compound	IC50 / µM
Cc1cc(C(=O)Nc2nc3cccc(Cl)c3n2[C@@H]2CCCCN(C(=O)/C=C/CN3CC(O)C3)C2)ccn1	0.014
Cc1cccc2nc(NC(=O)c3ccccc3F)n(C3CCCCN(C(=O)/C=C/CN(C)C)C3)c12 (stereo not shown)	0.034
CN(C)C/C=C/C(=O)N1CCCC[C@@H](n2c(NC(=O)c3ccnnc3)nc3cccc(Cl)c32)C1	0.015

Okay, now this compound:
Q. Param item = "Cc1cc(C(=O)Nc2nc3cccc(C)c3n2[C@@H]2CCCCN(C(=O)/C=C/CN(C)C)C2)cc(C)n1" ; retrieve measured IC50.
A. 0.004

---

Reported log10 of IC50 values for the following molecules.
Target: human EGFR L858R/T790M (NIH/3T3 cells) (Homo sapiens, UniProt P00533, L858R/T790M)
Sequence (P00533 25-1210 T790M/L858R): as the sequence (P00533 25-1210 T790M/L858R) above
Assay: EGFR target modulation in engineered NIH/3T3 cell lines (phospho-EGFR Y1068 AlphaLISA), EGFR L858R/T790M
Assay type: cell-based
Conditions: engineered NIH/3T3 cells, read-out: NIH3T3 IC50 (μM) EGFR (L858R/T790M)
Procedure: EGFR Target Modulation in Engineered NIH/3T3 Cell Lines Tissue Culture. The cells were harvested with 0.05% Trypsin/EDTA (Hyclone #SH30236.01), re-suspended in 5% FBS/DMEM Pen/Strep without Puromycin and plated at 9,000 cells per well in 50 μl of media in a 384-well black plate with clear bottoms (Greiner #789068G). […] With these parameters, the IC50's for each compound in each cell line was calculated using non-linear curve fitting analysis.
Recorded IC50 (log10, µM)

Q. Entry COc1cncc(C(=O)Nc2nc3cccc(C)c3n2[C@@H]2CCCCN(C(=O)/C=C/CN(C)C)C2)c1 [Example 17-79] : reported log10 of IC50 = ?
A. -2.70

Q. Also, C=CC(=O)N1CCC[C@@H](n2c(NC(=O)c3cccc(C(F)(F)F)c3)nc3cc(CN4CCCC4)ccc32)C1 [Example 17-117] please.
A. -2.22

Q. Would you mind doing Cc1cccc2nc(NC(=O)c3cc(F)c(F)c(F)c3)n(C3CCCCN(C(=O)/C=C/CN(C)C)C3)c12 (stereo not shown) [Example 17-33] as well?
A. -2.30

Q. And for Cc1cc(C(=O)Nc2nc3cccc(Cl)c3n2[C@@H]2CCCCN(C(=O)/C=C/CN3CC(F)C3)C2)ccn1 [Example 2] ?
A. -1.96

Q. Query C=CC(=O)N1CCC[C@@H](n2c(NC(=O)c3ccccc3)nc3cccc(C)c32)C1 [Example 17-108] next
A. -1.68

Q. Same thing, different molecule: C=C(CN1CCOCC1)C(=O)N1CCCC[C@@H](n2c(NC(=O)c3ccnnc3)nc3cccc(C)c32)C1 [Example 17-93]
A. -0.46

Q. And the next one, COc1cc(C(=O)Nc2nc3cccc(C)c3n2[C@@H]2CCCCN(C(=O)/C=C/CN(C)C)C2)cc(Cl)n1 [Example 17-75] ?
A. -2.15

---

target: human EGFR L858R/T790M (NIH/3T3 cells) (Homo sapiens, UniProt P00533, L858R/T790M); assay: EGFR target modulation in engineered NIH/3T3 cell lines (phospho-EGFR Y1068 AlphaLISA), EGFR L858R/T790M; format: cell-based; conditions: engineered NIH/3T3 cells, read-out: NIH3T3 IC50 (μM) EGFR (L858R/T790M)
Item-by-item account of IC50
Quick reminder: number only, in µM, skip the unit.

Record excerpt, results attached:
molecule	system	IC50 (µM)
Cc1cccc2nc(NC(=O)c3cnccn3)n(C3CCCCN(C(=O)/C=C/CN(C)C)C3)c12 (stereo not shown)	human EGFR L858R/T790M (NIH/3T3 cells) (Homo sapiens, UniProt P00533, L858R/T790M)	0.049
Cc1cccc2nc(NC(=O)c3ccnnc3)n(C3CCCCN(C(=O)/C=C/CN(C)C)C3)c12 (stereo not shown)	human EGFR L858R/T790M (NIH/3T3 cells) (Homo sapiens, UniProt P00533, L858R/T790M)	0.006
C=CC(=O)N1CCCCC(n2c(NC(=O)c3ccccc3)nc3cccc(-c4nc(C)no4)c32)C1 (stereo not shown)	human EGFR L858R/T790M (NIH/3T3 cells) (Homo sapiens, UniProt P00533, L858R/T790M)	0.067
Cc1cc(C(=O)Nc2nc3cccc(C)c3n2[C@@H]2CCCCN(C(=O)/C=C/CN(C)C)C2)ccn1	human EGFR L858R/T790M (NIH/3T3 cells) (Homo sapiens, UniProt P00533, L858R/T790M)	0.001

Q. IC50 lookup needed for C=CC(=O)N1CCCCC(n2c(NC(=O)c3cccc(C(F)(F)F)c3)nc3cccc(C(=O)O)c32)C1 (stereo not shown) , thanks.
A. 0.82

Q. // same read-out, input: "C=CC(=O)N1CCC[C@@H](n2c(NC(=O)c3cccc(C(F)(F)F)c3)nc3cc(C)ccc32)C1"
A. 0.012

Q. Can you check "C=CC(=O)N1CCCC[C@@H](n2c(NC(=O)c3ccccc3)nc3cccc(CN(C)CCS(C)(=O)=O)c32)C1" next?
A. 0.006

Q. Moving on to the next molecule: Cc1cccc2nc(NC(=O)c3ccnc(N(C)C)c3)n(C3CCCCN(C(=O)/C=C/CN(C)C)C3)c12 (stereo not shown)
A. 0.009
